inhibition for assorted molecules
Assay: LFS_MB_1R medulloblastoma cell growth inhibition, synergistic combos for chromothripsis tumors, cisplatin or BGB combos (AID 1671452);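 further: cells exposed for 96 hours before readout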
Conditions: LFS_MB_1R medulloblastoma cells, at 0.5 µM, active compounds read high
METRIC: inhibition (%)

Nc1ccc2cc3ccc(N)cc3nc2c1: -22.9
O=c1c(O)c(-c2ccc(O)c(O)c2)oc2cc(O)ccc12: -4.27
N=c1ccn2c(n1)O[C@H]1[C@H](O)[C@@H](CO)O[C@H]12: -7.06
Nc1ncn([C@H]2C[C@H](O)[C@@H](CO)O2)c(=O)n1: -7.33
CCn1nc(C(=O)O)c(=O)c2cc3c(cc21)OCO3: -36.2
CN1C[C@@H]2C[C@H]1CN2c1cc2c(cc1F)c(=O)c(C(=O)O)cn2C1CC1: -32.5

----------
Test system: F380Y/beta4
Experiment: modulators of BK channel variants, profiling panel, selectivity assay, cell-based, U2OS BacMam, thallium flux, beta subunits (AID 1259406);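 further: initial slope of Thallos dye fluorescence rise after thallium is added; log ratio against the mean of 0.3% DMSO vehicle wells on the same plate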
Conditions: at 30 µM
Note to self: values exactly at 0.003 are MET. So log fold change Tl+ flux at or above 0.003 is MET, below is NOT MET.

CCCC1O[C@@H]2C[C@H]3[C@@H]4CCC5=CC(=O)C=C[C@]5(C)[C@H]4[C@@H](O)C[C@]3(C)[C@]2(C(=O)CO)O1 (stereo partly specified): MET
N=c1nc(N2CCCCC2)cc(N)n1O: NOT MET
COC(=O)C1=C(C)NC(C)=C(C(=O)OCCN(C)Cc2ccccc2)C1c1cccc([N+](=O)[O-])c1 (stereo unspecified): NOT MET
CN1CCN(C2=Nc3cc(Cl)ccc3Nc3ccccc32)CC1: MET
CNCCC(Oc1ccc(C(F)(F)F)cc1)c1ccccc1 (stereo unspecified): MET
O=C(CCCN1CCC(O)(c2ccc(Cl)cc2)CC1)c1ccc(F)cc1: MET
Clc1ccccc1CN1CCc2sccc2C1: NOT MET
CON=C(C(=O)NC1C(=O)N2C(C(=O)O)=C(COC(C)=O)CSC12)c1csc(N)n1 (stereo unspecified): MET
CCn1cc(C(=O)O)c(=O)c2ccc(C)nc21: MET
Cn1cc[nH]c1=S: MET
COc1cc(Cc2cnc(N)nc2N)cc(OC)c1OC: MET
CN(C)CCC(c1ccc(Cl)cc1)c1ccccn1 (stereo unspecified): MET
CC1(C)S[C@@H]2[C@H](NC(=O)[C@H](N)c3ccc(O)cc3)C(=O)N2[C@H]1C(=O)O: NOT MET
OC[C@H]1O[C@@H](Oc2cc(O)cc(/C=C/c3ccc(O)cc3)c2)[C@H](O)[C@@H](O)[C@@H]1O: NOT MET
CC(C)NCC(O)COc1cccc2ccccc12 (stereo unspecified): MET
CC1=C(/C=C/C(C)=C/C=C/C(C)=C\C(=O)O)C(C)(C)CCC1: NOT MET
CC(C)NCC(O)COc1cccc2[nH]ccc12 (stereo unspecified): NOT MET
C#C[C@]1(O)CC[C@H]2[C@@H]3CCC4=CC(=O)CC[C@@H]4[C@H]3CC[C@@]21C: MET
CCN1CCN(C(=O)N[C@@H](C(=O)N[C@@H]2C(=O)N3[C@@H]2SC(C)(C)[C@@H]3C(=O)O)c2ccccc2)C(=O)C1=O: NOT MET

----------
Test: antimalarial activity against Dd2 strain (AID 2302);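 further: 0% = DMSO untreated growth and 100% = chloroquine plus artemisinin killed control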
Details: P. falciparum Dd2 in RBCs, LDH growth readout, 72 h; at 2 µM
Calls of active or inactive are those of the source.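 The calls were made as follows: active = growth inhibition above 50% at the single 2 µM test dose, taken to imply half-maximal potency below 2 µM; inactive = the rest.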
Outcomes: 1 (yes) for active, 0 (no) for inactive

O=C1c2cc(I)ccc2SC1c1ccccc1 (stereo not given): 1 (yes)
O=C(CCCCCNC(=O)c1ccc(O)c(-c2ccc(Cl)c(Cl)c2)c1)NCCN1CCCCC1: 0 (no)
CCCCSc1c(CNCCCCCCNCc2ccc3ccccc3c2SCCCC)ccc2ccccc12: 1 (yes)
O=C(Nc1ccc2c(c1)CCN2C1CCN(Cc2cccc3cc[nH]c23)C1)c1ccco1 (stereo not given): 1 (yes)
CCc1nc2c(N)nc(N)nc2nc1-c1ccc(OC)cc1: 0 (no)
CCOc1ccc(-c2nc3ccc(-c4nc5ccc(N6CCN(C)CC6)cc5[nH]4)cc3[nH]2)cc1: 1 (yes)
COc1ccc2ncc(F)c(CCN3CCC(CNC(=O)C(=O)c4c[nH]c5ccccc45)CC3)c2n1: 1 (yes)
CC1(C)N=C(N)N=C(N)N1OCCCCOc1ccccc1: 1 (yes)
COc1ccc(-c2cccc(NC(=O)c3ccc(F)cc3)c2)cc1CNC(C)C: 0 (no)
CN1CCC(NCc2cccc(-c3cccc(-c4nc5ccc(C(F)(F)F)cc5[nH]4)c3)c2)CC1: 1 (yes)
CN(C)CCCN(C)C(=O)c1cc2cc(-c3ccccc3)ccc2n1S(=O)(=O)c1ccccc1: 1 (yes)
Cc1cc(N(C)C)nc(Nc2ccc(NC(=O)c3ccccc3F)cc2)n1: 0 (no)
Oc1ccc(CCNc2nc(NCCCOc3ccccc3-c3ccc(F)cc3)nc(N3CCNCC3)n2)cc1: 0 (no)
C=C[C@H]1CN(CCCCCCC)CC[C@H]1CCN(C)c1ccnc2ccc(OC)cc12: 1 (yes)
O=C(Nc1cc(Cl)ccc1O)c1ccc(Oc2ccc(C(=O)Nc3cc(Cl)ccc3O)cc2)cc1: 1 (yes)
O=c1cc(NCCCNCc2ccc(Cl)c(Cl)c2)[nH]c2cc(Cl)ccc12: 1 (yes)
CCCS(=O)(=O)N1CCC(CO)(Cc2ccccc2C(F)(F)F)CC1: 1 (yes)
C[C@H](Cc1ccc(C[C@@H](C)NCC(O)c2cc(Cl)c(N)c(Cl)c2)cc1)NCC(O)c1cc(Cl)c(N)c(Cl)c1 (stereo not given in full): 1 (yes)
CC(C)C(C)(C#N)NC(=O)CSc1nc2ccc([N+](=O)[O-])cc2s1 (stereo not given): 1 (yes)
CCCC(C)Nc1nc(C)cc(N[C@@H](CC(C)C)C(=O)NCCOc2ccccc2)n1 (stereo not given in full): 0 (no)
O=C(Nc1ccc(CN2CCN(S(=O)(=O)c3ccc(Cl)s3)CC2)cc1)c1cccs1: 1 (yes)
c1ccc(CN2CCC(NCc3ccc(-c4ccc(CNC5CCCC5)cc4)cc3)CC2)cc1: 1 (yes)
OC(CNc1ccnc(Nc2cccc(Cl)c2)n1)c1cccc(C(F)(F)F)c1 (stereo not given): 1 (yes)
C=C[C@H]1CN2CC[C@H]1C[C@@H]2[C@@H](O)c1ccnc2ccc(OC)cc12: 1 (yes)
Cc1cccc2[nH]c(-c3ccc(-c4cccc(NC(=O)NCc5cccc(F)c5)c4)cc3)nc12: 0 (no)
NC1=NC(c2ccccc2)(c2ccccc2)C(=O)N1CC1CCC1: 1 (yes)
Clc1ccc2c(NCCNc3ccnc4cc(Cl)ccc34)ccnc2c1: 1 (yes)
CCCC(C)Nc1nc(C)cc(N[C@@H](CC(C)C)C(=O)NCc2ccc(C)cc2)n1 (stereo not given in full): 1 (yes)
COc1cc2c(cc1S(=O)(=O)c1ccc(NC(=O)c3cc4ccccc4s3)cc1)CCN(C)CC2: 1 (yes)
CC(C)(C)c1ccc(CN2CCC(NC(=O)c3ccc(-c4ccccc4Cl)s3)CC2)cc1: 0 (no)
COc1ccc2nccc([C@@H](O)CN3CCC(NCc4ccc5c(c4)nnn5C(C)C)CC3)c2c1: 0 (no)
CN(C)CCCOc1ccc(CCCCc2ccc(Cl)cc2C(=O)c2ccccc2)cc1: 0 (no)
O=C(Nc1cccc(-c2ccc(-c3nc4ccc(F)cc4[nH]3)cc2)c1)c1cccnc1: 1 (yes)
Cc1cc(NCCC(=O)NCCc2ccccc2)nc(NCCc2ccc(F)cc2)n1: 0 (no)
CCNc1cc(C)nc(Nc2ccc(NS(=O)(=O)c3ccccc3)cc2)n1: 1 (yes)
NC(=O)COc1cccc2c1CCN(CCN1CCC(NC(=O)c3ccc(-c4ccc(Cl)cc4)cc3)CC1)C2: 0 (no)
COc1ccc2nc(C)cc(NN=Cc3ccccc3Cl)c2c1: 1 (yes)
COc1ccccc1N1CCN(Cc2cc(C(C)C)c(C)cc2O)CC1: 1 (yes)
COc1ccc(CN(C)CCCSc2ccc(NC(=O)c3cccc4c(=O)cc(-c5ccccc5)[nH]c34)cc2)cc1OC: 1 (yes)
CC(=O)Nc1cccc(C(=O)Nc2cccc(-c3cccc(-c4nc5ccccc5[nH]4)c3)c2)c1: 1 (yes)
